test system: H1650 lung cancer cells; assay: Cell viability assay (MTT, IC50 determination); format: cell-based; details: Homo sapiens, NCI-H1650, 48 h, read-out: H1650 cell viability IC50
valueKind: IC50 (µM)
Give bare numbers, in µM.

CC(=O)N1C[C@@H](NS(=O)(=O)c2ccc(OC(F)(F)F)cc2)[C@H](O)[C@@H](N2c3ccccc3Oc3ccccc32)C1 [Example 18a]	25

I'm hoping you can list IC50 for every compound here, please.
1. CC(=O)N1C[C@H](NS(=O)(=O)c2ccc(OC(F)(F)F)cc2)[C@@H](O)[C@H](N2c3ccccc3Oc3ccccc32)C1 [Example 18b]
2. [N-]=[N+]=Nc1ccc(S(=O)(=O)N[C@@H]2COC[C@H](N3c4ccccc4Oc4ccccc43)[C@H]2O)cc1 [Example 6]
3. COC(=O)N1C[C@H](NS(=O)(=O)c2ccc(OC(F)(F)F)cc2)[C@@H](O)[C@H](N2c3ccccc3Oc3ccccc32)C1 [Example 20b]
4. COC(=O)N1C[C@@H](NS(=O)(=O)c2ccc(OC(F)(F)F)cc2)[C@H](O)[C@@H](N2c3ccccc3Oc3ccccc32)C1 [Example 20a]

Resp:
1: 15; 2: 25; 3: 5; 4: 15

---

test system: H1650 lung cancer cells; assay: Cell viability assay (MTT, IC50 determination); format: cell-based; conditions: Homo sapiens, NCI-H1650; H1650 lung cancer cells, MTT, 48 hours after drug treatment; read-out: H1650 cell viability IC50
So I've got a bunch of compounds here, and I need their IC50 values.
Answers are plain numbers, in µM.

Reference set, count: 2
O=S(=O)(N[C@@H]1COC[C@H](N2c3ccccc3Oc3ccccc32)[C@H]1O)c1ccc(OC(F)(F)F)cc1	15
CC(C)(C)OC(=O)N1C[C@@H](NS(=O)(=O)c2ccc(OC(F)(F)F)cc2)[C@H](O)[C@@H](N2c3ccc(C(F)(F)F)cc3Oc3cc(C(F)(F)F)ccc32)C1	5

Turning to the following compound.
Req: Query for H1650 lung cancer cells: what IC50 does the record show for CC(C)(C)c1ccc2c(c1)c1ccccc1n2[C@H]1CNC[C@@H](NS(=O)(=O)c2ccc(OC(F)(F)F)cc2)[C@@H]1O [Example 53a] ?
Resp: 5

---

system: H1650 lung cancer cells; experiment: Cell viability assay (MTT, IC50 determination); format: cell-based; conditions: Homo sapiens, NCI-H1650; H1650 lung cancer cells, MTT, 48 hours after drug treatment; read-out: H1650 cell viability IC50
pIC50: −log10 of the molar value.
Hi! Could you tag entries with pIC50 below 5 as rule met, and those at or above as rule not met? Much appreciated.

Worked cases, answers included:
CC(C)(C)OC(=O)Nc1cccc(S(=O)(=O)N[C@@H]2COC[C@H](N3c4ccccc4Oc4ccccc43)[C@H]2O)c1	rule not met
O=S(=O)(N[C@@H]1COC[C@H](N2c3ccc(C(F)(F)F)cc3Oc3cc(C(F)(F)F)ccc32)[C@H]1O)c1ccc(OC(F)(F)F)cc1	rule not met
CC(=O)N1CC(NS(=O)(=O)c2ccc(OC(F)(F)F)cc2)[C@H](O)C(N2c3ccccc3Oc3ccccc32)C1 (mixture of isomers)	rule met
O=S(=O)(N[C@@H]1CNC[C@H](N2c3ccccc3Oc3ccccc32)[C@H]1O)c1ccc(OC(F)(F)F)cc1 [Example 17a]	rule met
CN1C[C@H](NS(=O)(=O)c2ccc(OC(F)(F)F)cc2)[C@@H](O)[C@H](N2c3ccccc3Oc3ccccc32)C1 [Example 19b]	rule met
O=S(=O)(N[C@@H]1COC[C@H](N2c3ccccc3Oc3ccccc32)[C@H]1O)c1cccc(Cl)c1	rule met

Req: Strictly below 5 in pIC50? `O=S(=O)(N[C@@H]1CNC[C@H](n2c3ccc(F)cc3c3cc(F)ccc32)[C@H]1O)c1ccc(OC(F)(F)F)cc1`
Resp: rule not met

Req: Try `O=S(=O)(N[C@@H]1COC[C@H](N2c3ccccc3Oc3ccccc32)[C@H]1O)c1ccc(Cl)cc1` next.
Resp: rule not met

Req: Try CC(C)(C)OC(=O)N1C[C@H](NS(=O)(=O)c2ccc(OC(F)(F)F)cc2)[C@@H](O)[C@H](n2c3ccccc3c3ccccc32)C1 [Example 52b] next.
Resp: rule not met

Req: Try O=S(=O)(N[C@@H]1COCC(n2c3ccccc3c3ccccc32)[C@H]1O)c1ccc(OC(F)(F)F)cc1 (mixture of isomers) next.
Resp: rule met

Req: Try `O=S(=O)(N[C@@H]1CNC[C@H](N2c3ccc(C(F)(F)F)cc3Oc3cc(C(F)(F)F)ccc32)[C@H]1O)c1ccc(OC(F)(F)F)cc1` next.
Resp: rule not met

Req: Try `O=S(=O)(N[C@@H]1COC[C@H](N2c3ccccc3Oc3ccccc32)[C@H]1O)c1ccc(C(F)(F)F)nc1` next.
Resp: rule met

Req: Try `O=S(=O)(N[C@@H]1COC[C@H](n2c3ccc(Cl)cc3c3cc(Cl)ccc32)[C@H]1O)c1ccc(OC(F)(F)F)cc1` next.
Resp: rule not met

Req: Try `O=S(=O)(N[C@@H]1COC[C@H](N2c3ccccc3Oc3ccccc32)[C@H]1O)c1ccccc1Cl` next.
Resp: rule met

Req: Try CN1C[C@@H](NS(=O)(=O)c2ccc(OC(F)(F)F)cc2)[C@H](O)[C@@H](N2c3ccccc3Oc3ccccc32)C1 [Example 19a] next.
Resp: rule met

Req: Try O=S(=O)(N[C@@H]1CNCC(N2c3ccccc3Oc3ccccc32)[C@H]1O)c1ccc(OC(F)(F)F)cc1 (mixture of isomers) next.
Resp: rule not met
